All values here come from PubChem BioAssay AID2823.

test-target: RanGTP-importin-beta complex (human Ran / KPNB1)
protocol-notes: disruptors of RanGTP/KPNB1 binding – biochemical, FRET, CFP/YFP, cell-free homogeneous, confirmation (AID 2823)
protocol-conditions: CFP-Ran/YFP-importin-beta FRET ratio
Active and inactive are the calls of the source. The rule behind the calls is not given here.
Outcome codes: 1.0 = active, 0.0 = inactive

                                    compound  cat
 0  CCOC(=O)c1c(N)n(CCCOC(=O)c2ccco2)c2nc3ccccc3nc12  1.0
 1  COc1cccc(-c2coc3c(C)c4oc(=O)c(CC(=O)O)c(C)c4cc23)c1  0.0
 2  CCN(CC)c1ccc(/C=N/NC(=O)c2c(Cl)cnn2C)c(O)c1  1.0
 3  Cc1ccc(Cl)cc1N1C(=O)CC(Sc2ncccn2)C1=O (stereo unspecified)  0.0
 4  Cc1cccc(C)c1NC(=O)C1c2cccc[n+]2CC(=O)N1Cc1cccs1 (stereo unspecified)  0.0
 5              CC1(C)CNC(=O)C=C(c2ccccc2)C1  0.0
 6  CC(=O)Nc1ccc(S(=O)(=O)NCc2nc(-c3cccc(C)c3)no2)cc1  0.0
 7  Oc1ccc(-c2[nH]ncc2-c2cccc3cccnc23)c(O)c1  0.0
 8  C=CCn1c(SCC(=O)Nc2sccc2C(N)=O)nc2ccccc2c1=O  0.0
 9  Oc1ccccc1/C=N/Nc1cc(N2CCCC2)nc(N2CCCC2)n1  0.0
10  O=C(Cc1cc(=O)oc2cc(O)ccc12)NCC1CCC(C(=O)O)CC1 (stereo unspecified)  1.0

---

test-target: RanGTP-importin-beta complex (human Ran / KPNB1)
protocol-notes: disruptors of RanGTP/KPNB1 binding – biochemical, FRET, CFP/YFP, cell-free homogeneous, confirmation (AID 2823)
protocol-conditions: CFP-Ran/YFP-importin-beta FRET ratio
Activity calls are given as the source filed them. No rule for the calls is given here.
Outcome codes: Y for active, N for inactive

In [3]: df
Out[3]:
                                   molecule  cat
0  CCOC(=O)c1c(NC(=O)C2CCCCC2)sc2c1CCN(C(C)C)C2    N
1  CC(C)CCNC(=O)C(c1ccco1)N(Cc1ccc(F)cc1)C(=O)c1snc(C(N)=O)c1N (stereo not given)    N
2  Cc1cc(C)c(C2=CC(c3ccccc3)n3ncnc3N2)cc1C (stereo not given)    Y
3  Cc1cccc(C)c1NC(=O)C1=C(O)c2sccc2N(C)S1(=O)=O    Y
4  Cc1cccc(-c2nnc(NC(=O)c3ccc(N4C(=O)CCC4=O)cc3)s2)c1    N

---

test-target: RanGTP-importin-beta complex (human Ran / KPNB1)
protocol-notes: disruptors of RanGTP/KPNB1 binding – biochemical, FRET, CFP/YFP, cell-free homogeneous, confirmation (AID 2823)
protocol-conditions: CFP-Ran/YFP-importin-beta FRET ratio
Calls of active or inactive are those of the source. How the calls were made is not given here.
Outcome codes: active, inactive

In [3]: df
Out[3]:
                                    compound       cat
 0   CCOC(=O)C1(CCc2ccccc2)CCN(Cc2ccccn2)CC1  inactive
 1  COCCOC(=O)C1=C(C)NC(=O)NC1c1cccc2ccccc12 (stereo not drawn)  inactive
 2  COC(=O)[C@@H]1[C@H]2C[C@H]3c4[nH]c5ccccc5c4CCN3C[C@@H]2CC[C@@H]1O  inactive
 3  CC(CC(F)(F)F)N1CCC(n2nccc2NC(=O)CCOc2ccccc2)CC1 (stereo not drawn)  inactive
 4  COCCn1c(=NC(=O)c2ccc3c(c2)OCO3)c(C#N)cc2c(=O)n3cccc(C)c3nc21  inactive
 5               Oc1c(C=Nc2ccccc2)sc2ccccc12    active
 6         O=C(CN1CC(=O)Oc2ccccc21)NCc1ccco1  inactive
 7    CCCc1cc(=O)oc2c(CN3CCCC3)c(O)c(Cl)cc12    active
 8  Cc1ccc(OCC(=O)c2cc(C)n(CC(F)(F)F)c2C)c([N+](=O)[O-])n1  inactive
 9  COc1cc2c(cc1OC)CN(Cc1cc(=O)oc3cc(C)c(Cl)cc13)CC2  inactive
10  Cc1cc2c(c(=O)n1C1CC1)C(c1cccc(Cl)c1)C(C#N)=C(N)O2 (stereo not drawn)  inactive
11  Nc1c(C(=O)OC2CCCCC2)c2nc3ccccc3nc2n1CC1CCCO1 (stereo not drawn)    active
12  CC1=Nc2ccccc2/C1=C\c1sc(Nc2ccc(C)cc2)nc1O  inactive
13  COc1cc(-c2nc3cnccn3c2Nc2ccc(C(C)C)cc2)ccc1O  inactive
14  CCOC(=O)N1CCN(c2cc(=O)n(C3CCCCC3)c(=O)[nH]2)CC1  inactive
15      O=C(CN1CCOCC1)NNc1c2ccccc2nc2ccccc12  inactive
16         CC1(C)CCC(=O)C=C1Nc1ccc(F)c(Cl)c1  inactive
17  CC(=O)c1cccc(OCC(=O)N(C)CC(=O)Nc2ccc(F)cc2)c1  inactive
18  COc1ccccc1N1CCN(C(=O)/C=C/c2ccc(C)cc2)CC1  inactive
19           O=C(CCCO)NNc1c2ccccc2nc2ccccc12  inactive
20  COc1cc(CN2CCN(Cc3c[nH]c4ccccc34)CC2CCO)cc(OC)c1 (stereo not drawn)  inactive
21  CCOC(=O)c1c(NC(=O)c2cccc(N3C(=O)CCC3=O)c2)sc2c1CCN(CC)C2  inactive
22  CCOC(=O)c1c(N)n(CCN2CCCCC2)c2nc3ccccc3nc12    active
